Experiment: TIMS collision cross section in N2 (TIMS CCS N2); higher = larger gas-phase ion size
Settings: ion species: [M-3H]-; drift gas: N2 (99.4% N2, 0.6% O2); calibration: Stow et al. 2017 values for Agilent ESI-L Low Concentration Tune Mix; ionization: negative ESI
Listed here: items and their measured TIMS collision cross section in N2.
Reply numerically in Å², unit not repeated.

molecule="O=c1c(O)c(-c2cccc(O)c2O)oc2ccc(O)cc12 [3,6,2',3'-Tetrahydroxyflavone]" property_name="TIMS collision cross section in N2" value_reported=161.13
molecule="O=C(CCc1ccc(O)c(O)c1)c1c(O)cc(O)c([C@@H]2O[C@H](CO)[C@@H](O)[C@H](O)[C@H]2O)c1O [Aspalathin]" property_name="TIMS collision cross section in N2" value_reported=195.17
molecule="O=c1c(O)c(-c2ccc(O)c(O)c2)oc2cc(O)ccc12 [Fisetin]" property_name="TIMS collision cross section in N2" value_reported=157.48
molecule="C[C@@H]1O[C@@H](OC[C@H]2O[C@@H](Oc3c(-c4ccc(O)c(O)c4)oc4cc(O)cc(O)c4c3=O)[C@H](O)[C@@H](O)[C@@H]2O)[C@H](O)[C@H](O)[C@H]1O [Rutin]" property_name="TIMS collision cross section in N2" value_reported=219.55
molecule="O=C1c2ccc(O)cc2O[C@H](c2ccc(O)c(O)c2)[C@H]1O [3,7,3',4'-Tetrahydroxyflavanone (fustin)]" property_name="TIMS collision cross section in N2" value_reported=160.22

Short answer for C[C@@H]1O[C@@H](O[C@H]2[C@H](Oc3cc(O)c4c(c3)O[C@H](c3ccc(O)c(O)c3)CC4=O)O[C@H](CO)[C@@H](O)[C@@H]2O)[C@H](O)[C@H](O)[C@H]1O [eriodictyol-7-neohesperidoside] : TIMS collision cross section in N2 was 222.52

* * *

Listed here: items and their measured TIMS collision cross section in N2.
Assay: TIMS collision cross section in N2 (TIMS CCS N2); higher = larger gas-phase ion size
Settings: ion species: [2M-H]-; drift gas: N2 (99.4% N2, 0.6% O2); calibration: Stow et al. 2017 values for Agilent ESI-L Low Concentration Tune Mix; ionization: negative ESI
Reply numerically in Å², unit not repeated.

Sample answers from the record:
compound="O=c1cc(-c2ccc(O)cc2)oc2cc(O)ccc12 [7,4'-dihydroxyflavone]" value_reported=221.31
compound=CCCCCCCCCCCCCCCCC(=O)O value_reported=259.04

Short answer for O=c1oc2cc(O)ccc2c2oc3cc(O)ccc3c12 : TIMS collision cross section in N2 was 245.05

Short answer for CC(C)=CCC/C(C)=C/Cc1c(O)cc2c(c1O)C(=O)C[C@@H](c1ccc(O)cc1)O2 : TIMS collision cross section in N2 was 275.87

* * *

Assay: TIMS collision cross section in N2 (TIMS CCS N2); higher = larger gas-phase ion size
Details: ion species: [M-H+Na+HCO2H]-; drift gas: N2 (99.4% N2, 0.6% O2); calibration: Stow et al. 2017 values for Agilent ESI-L Low Concentration Tune Mix; ionization: negative ESI
± gives the uncertainty stated by the source.
property_name: TIMS collision cross section in N2
Put down the number, then write its unit next to it.

compound=C[C@@H]1O[C@@H](OC[C@H]2O[C@@H](Oc3cc(O)c4c(=O)cc(-c5ccc(O)cc5)oc4c3)[C@H](O)[C@@H](O)[C@@H]2O)[C@H](O)[C@H](O)[C@H]1O property_name="TIMS collision cross section in N2" value_reported="237.1 ± 0.28 Å²"
compound="O=c1c(O)c(-c2ccccc2)oc2ccccc12 [3-Hydroxyflavone]" property_name="TIMS collision cross section in N2" value_reported="172.34 ± 0.36 Å²"
compound=COc1ccc(-c2cc(=O)c3c(O)c(OC)c(O)c(OC)c3o2)cc1 property_name="TIMS collision cross section in N2" value_reported="199.45 ± 0.091 Å²"

Now look at this entry.
Short answer for C[C@H]1[C@H](C)CC[C@]2(C(=O)O)CC[C@]3(C)C(=CC[C@@H]4[C@@]5(C)C[C@@H](O)[C@H](O)C(C)(C)[C@@H]5CC[C@]43C)[C@H]12 : TIMS collision cross section in N2 was 231.55 ± 0.4 Å²
